Organism: Rattus norvegicus
Assay: DrugMatrix - Regimen: Daily Repeat
Type: toxicity, organism-based, Sprague-Dawley
Set-up: regimen Daily Repeat, gender Male, age 6-8 weeks
Details: in vivo, iv, 0 mg/kg, 72 h, tissue Plasma, dose level Control, time 3 day, vehicle 100 % SALINE
measurement type: CHLORIDE

| compound string | result |
| --- | --- |
| CC[C@@]1(O)C(=O)OCc2c1cc1n(c2=O)Cc2cc3ccccc3nc2-1 | 102.17 MEQ/L |
| CC1(C)S[C@@H]2[C@H](NC(=O)[C@H](NC(=O)N3CCNC3=O)c3ccccc3)C(=O)N2[C@H]1C(=O)O | 99.67 MEQ/L |
| CN(N=O)C(=O)N[C@@H](C=O)[C@@H](O)[C@H](O)[C@H](O)CO | 103 MEQ/L |
| NCC[C@H](O)C(=O)N[C@@H]1C[C@H](N)[C@@H](O[C@H]2O[C@H](CN)[C@@H](O)[C@H](O)[C@H]2O)[C@H](O)[C@H]1O[C@H]1O[C@H](CO)[C@@H](O)[C@H](N)[C@H]1O | 100 MEQ/L |

* * *

List of HEMATOCRIT values.
Species: Rattus norvegicus
Assay: DrugMatrix - Regimen: Daily Repeat
Type: toxicity, organism-based, Sprague-Dawley
Parameters: regimen Daily Repeat, gender Male, age 6-8 weeks
Settings: in vivo, po, 2000 mg/kg, 72 h, tissue Blood, route oral GAVAGE, dose level High, time 3 day, vehicle .5 % CMC
measurement type: HEMATOCRIT (%)

| molecule | measurement type | quantitative readout |
| --- | --- | --- |
| CC(=O)O[C@]1(C(C)=O)CC[C@H]2[C@@H]3C=C(Cl)C4=CC(=O)CC[C@]4(C)[C@H]3CC[C@@]21C [CHLORMADINONE ACETATE] | HEMATOCRIT | 36.4 |
| CC(C)[C@H](N)C(=O)OCCOCn1cnc2c(=O)[nH]c(N)nc21 | HEMATOCRIT | 31.53 |
| NCCCC[C@H](N[C@@H](CCc1ccccc1)C(=O)O)C(=O)N1CCC[C@H]1C(=O)O [LISINOPRIL ANHYDROUS] | HEMATOCRIT | 33.57 |
| NCC(=O)O | HEMATOCRIT | 36.47 |

* * *

Species on record: Rattus norvegicus
Test: DrugMatrix - Regimen: Daily Repeat
Assay type: toxicity, organism-based, Sprague-Dawley
Parameters: regimen Daily Repeat, gender Male, age 6-8 weeks
Details: in vivo, iv, 0 mg/kg, 120 h, tissue Plasma, dose level Control, time 5 day, vehicle 100 % SALINE
List of ALANINE AMINOTRANSFERASE values.

| compound string | ALANINE AMINOTRANSFERASE [u/L] |
| --- | --- |
| CC1(C)S[C@@H]2[C@H](NC(=O)[C@H](NC(=O)N3CCNC3=O)c3ccccc3)C(=O)N2[C@H]1C(=O)O | 44.67 |
| CN(N=O)C(=O)N[C@@H](C=O)[C@@H](O)[C@H](O)[C@H](O)CO | 49.17 |
| NCC[C@H](O)C(=O)N[C@@H]1C[C@H](N)[C@@H](O[C@H]2O[C@H](CN)[C@@H](O)[C@H](O)[C@H]2O)[C@H](O)[C@H]1O[C@H]1O[C@H](CO)[C@@H](O)[C@H](N)[C@H]1O | 52.5 |
| CC[C@@]1(O)C(=O)OCc2c1cc1n(c2=O)Cc2cc3ccccc3nc2-1 | 51 |

* * *

Species on record: Rattus norvegicus
Assay: DrugMatrix - Regimen: Daily Repeat
Assay type: toxicity, organism-based, Sprague-Dawley
Design: regimen Daily Repeat, gender Male, age 6-8 weeks
Conditions: in vivo, po, 0 mg/kg, 120 h, tissue Blood, route oral GAVAGE, dose level Control, time 5 day, […]

| molecule | u | PLATELET COUNT |
| --- | --- | --- |
| COC1=CC(=O)C[C@@H](C)[C@]12Oc1c(Cl)c(OC)cc(OC)c1C2=O | x10E3/uL | 1143.17 |
| CC(C)n1c(/C=C/C(O)CC(O)CC(=O)O)c(-c2ccc(F)cc2)c2ccccc21 (stereo not given) | x10E3/uL | 1275.33 |
| CN(C)CCCC1(c2ccc(F)cc2)OCc2cc(C#N)ccc21 (stereo not given) | x10E3/uL | 1077.5 |
| Cn1cnc([N+](=O)[O-])c1Sc1ncnc2nc[nH]c12 | x10E3/uL | 848.33 |
| C=CCN | x10E3/uL | 1056.67 |
| O=[N+]([O-])c1cc([As](=O)(O)O)ccc1O | x10E3/uL | 1531.2 |
| COCc1c(C(C)C)nc(C(C)C)c(/C=C/[C@@H](O)C[C@@H](O)CC(=O)O)c1-c1ccc(F)cc1 | x10E3/uL | 1097.83 |
| CSc1ccc2c(c1)N(CCC1CCCCN1C)c1ccccc1S2 (stereo not given) | x10E3/uL | 1233.5 |
| Oc1c(Cl)cc(Cl)cc1Sc1cc(Cl)cc(Cl)c1O | x10E3/uL | 1275.33 |
| CCCC[C@@H](CC)COC(=O)c1ccccc1C(=O)OC[C@@H](CC)CCCC [BIS(2-ETHYLHEXYL)PHTHALATE] | x10E3/uL | 941.83 |
| c1ccc2[nH]c(-c3cscn3)nc2c1 | x10E3/uL | 941.83 |
| CC1=C(/C=C/C(C)=C/C=C/C(C)=C\C(=O)O)C(C)(C)CCC1 | x10E3/uL | 1099.33 |
| CC(=O)[C@H]1CC[C@H]2[C@@H]3CCC4=CC(=O)CC[C@]4(C)[C@H]3CC[C@]12C | x10E3/uL | 1077.5 |
| COc1ccc2c(c1)c(CC(=O)OCC(=O)O)c(C)n2C(=O)c1ccc(Cl)cc1 | x10E3/uL | 1183.5 |
| CC(C)(Oc1ccc(CCNC(=O)c2ccc(Cl)cc2)cc1)C(=O)O [BEZAFIBRATE] | x10E3/uL | 1531.2 |

* * *

Species on record: Rattus norvegicus
Assay: DrugMatrix - Regimen: Daily Repeat
Assay type: toxicity, organism-based, Sprague-Dawley
Design: regimen Daily Repeat, gender Male, age 6-8 weeks
Conditions: in vivo, po, 0 mg/kg, 72 h, tissue Plasma, route oral GAVAGE, dose level Control, time 3 day, […]
Kind request: treat 6 MEQ/L as inclusive, so POTASSIUM at 6 MEQ/L or higher is TRUE, anything lower is FALSE.

| compound | group |
| --- | --- |
| CC(C)(Oc1ccc(CCNC(=O)c2ccc(Cl)cc2)cc1)C(=O)O [BEZAFIBRATE] | FALSE |
| CN(C)CCCC1(c2ccc(F)cc2)OCc2cc(C#N)ccc21 (stereo unspecified) [CITALOPRAM] | FALSE |
| CSc1ccc2c(c1)N(CCC1CCCCN1C)c1ccccc1S2 (stereo unspecified) [THIORIDAZINE] | TRUE |
| CCCC[C@@H](CC)COC(=O)c1ccccc1C(=O)OC[C@@H](CC)CCCC [BIS(2-ETHYLHEXYL)PHTHALATE] | FALSE |
| c1ccc2[nH]c(-c3cscn3)nc2c1 [THIABENDAZOLE] | FALSE |
| CC(C)n1c(/C=C/C(O)CC(O)CC(=O)O)c(-c2ccc(F)cc2)c2ccccc21 (stereo unspecified) [FLUVASTATIN] | FALSE |
| COc1ccc2c(c1)c(CC(=O)OCC(=O)O)c(C)n2C(=O)c1ccc(Cl)cc1 [ACEMETACIN] | TRUE |
| CC1=C(/C=C/C(C)=C/C=C/C(C)=C\C(=O)O)C(C)(C)CCC1 [ISOTRETINOIN] | TRUE |

* * *

Species on record: Rattus norvegicus
Assay: DrugMatrix - Regimen: Daily Repeat
Type: toxicity, organism-based, Sprague-Dawley
Set-up: regimen Daily Repeat, gender Male, age 6-8 weeks
Conditions: in vivo, po, 0 mg/kg, 72 h, tissue Blood, route oral GAVAGE, dose level Control, time 3 day, vehicle 100 % WATER

| molecule | LYMPHOCYTE [%] |
| --- | --- |
| CNCCC=C1c2ccccc2CCc2ccccc21 [NORTRIPTYLINE] | 90.17 |
| NNC(=O)c1ccncc1 [ISONIAZID] | 86.5 |
| C[C@]12Cc3c[nH]nc3C[C@@H]1CC[C@@H]1[C@@H]2CC[C@@]2(C)[C@H]1CC[C@]2(C)O [STANOZOLOL] | 91.17 |
| COc1cccc(C2(O)CCCCC2CN(C)C)c1 (centres undefined) [TRAMADOL] | 91.17 |
| Cc1cc(NS(=O)(=O)c2ccc(N)cc2)no1 [SULFAMETHOXAZOLE] | 89.33 |
| CC1(C)S[C@@H]2[C@H](NC(=O)[C@H](N)c3ccc(O)cc3)C(=O)N2[C@H]1C(=O)O [AMOXICILLIN] | 88 |
| CC(CCc1ccccc1)NCC(O)c1ccc(O)c(C(N)=O)c1 (centres undefined) [LABETALOL] | 89.83 |
| CC1COc2c(N3CCN(C)CC3)c(F)cc3c(=O)c(C(=O)O)cn1c23 (centres undefined) [OFLOXACIN] | 92.33 |
| CN1CCN(C(=O)OC2c3nccnc3C(=O)N2c2ccc(Cl)cn2)CC1 (centres undefined) [ZOPICLONE] | 89.83 |

Data credit: ChEMBL document CHEMBL3885881
